- Tested on: mouse SGLT2 mRNA
- EXPERIMENT_NOTES: Mouse SGLT2 mRNA in kidney, additional 1-10-1 and 2-8-2 MOE gapmers (Table 68)
- Type: in vivo
- CONDITION_INFO: 0.02 umol/kg i.p. twice per week for three weeks, Balb/c mouse kidney
Strand notation (5' to 3'): a small letter for the sugar, then the base; units joined by * are phosphorothioate-linked, units joined directly phosphodiester-linked; [ ] holds rarer units or linkages, { } end groups; capitals alone tell only the bases. e = 2'-O-(2-methoxyethyl) (MOE); [5mC] = 5-methylcytosine; d = 2'-deoxy (DNA)
Could you label it YES if measured % change in SGLT2 expression relative to saline is -40% or higher, and NO otherwise?

IN: Please indicate if the recorded % change in SGLT2 expression relative to saline for ISIS 388627 (eG*e[5mC]*dA*d[5mC]*dA*d[5mC]*dA*dG*d[5mC]*dT*eG*e[5mC]) meets or exceeds -40%.
OUT: YES

IN: Repeat with ISIS 388625: TGTTCCAGCCCA 2-8-2 MOE Gapmer, SGLT2 (eT*eG*dT*dT*d[5mC]*d[5mC]*dA*dG*d[5mC]*d[5mC]*e[5mC]*eA)
OUT: NO

IN: Try this substance next: ISIS 379699: GGCATGAGCTTC 1-10-1 MOE, SGLT2 (eG*dG*d[5mC]*dA*dT*dG*dA*dG*d[5mC]*dT*dT*e[5mC])
OUT: YES

IN: Also check ISIS 379692: 1-10-1 MOE gapmer, SGLT2 (eT*dG*dT*dT*d[5mC]*d[5mC]*dA*dG*d[5mC]*d[5mC]*d[5mC]*eA)
OUT: NO

IN: Same read-out for ISIS 388626: GGCATGAGCTTC 2-8-2 MOE, SGLT2 (eG*eG*d[5mC]*dA*dT*dG*dA*dG*d[5mC]*dT*eT*e[5mC]) ?
OUT: NO
